Target: T1, TNFR2-His (Sino Biological, 10417-H08H, NP_001057.1 Met1-Asp257, with multi-histidine tag expressed on … (human, UniProt P20333 23-257))
T1 construct: range 1-257; Bought protein; also called recombinant human TNFR2 protein; TNFR2-His antigen; not shown: C-terminal multi-histidine tag
T1 sequence (looked up): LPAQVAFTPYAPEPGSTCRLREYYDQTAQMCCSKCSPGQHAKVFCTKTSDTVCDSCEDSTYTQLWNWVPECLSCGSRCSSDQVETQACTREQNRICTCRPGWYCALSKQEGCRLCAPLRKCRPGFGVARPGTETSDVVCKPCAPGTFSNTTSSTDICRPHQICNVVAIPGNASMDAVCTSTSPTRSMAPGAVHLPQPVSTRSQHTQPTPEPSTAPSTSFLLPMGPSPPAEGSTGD
Assay: ELISA, plate coated with TNFR2-His
endpoint: EC50 (µg/mL)
Please state the figure in µg/mL; there is no need to write the unit.

These recorded examples may help you get a feel for the data.
Specify reported EC50 for the binder shown: 11G2huVH5 + huVL2(P07270) (antibody, V domains shown, Humanized 11G2) VH: QVQLVQSGAEVKKPGASVKVSCKASGYTFITYDINWVRQATGQGLEWIGWIYPRDGNTQYAQKFQGRVTMTRNTSISTAYMELSSLRSEDTAVYYCARGDRDYGYFDVWGQGTTVTVSS VL: DIQMTQSPSSLSASVGDRVTITCRASQDISNYLNWYQQKPGKAPKLLIYFKSKLHSGVPSRFSGSGSGTDFTLTISSLQPEDFATYYCQQGNTLPLTFGGGTKLEIK
0.0527

Specify reported EC50 for the binder shown: 11G2huVH1 + huVL1(P07262) (antibody, V domains shown, Humanized 11G2) VH: QVQLVQSGAEVKKPGASVKLSCKASGYTFITYDINWVRQAPGQGLEWIGWIYPRDGNTQFNENFKGKATMTVDESTSTAYMEVRSLRSDDTAVYYCARGDRDYGYFDVWGQGTTVTVSS VL: DIQMTPSTSSLSASVGDRVTITCRASQDISNYLNWYQQKPGKAVKLLIYFKSKLHSGVPSRFSGSGSGTDFTLTISSLQPEDFATYYCQQGNTLPLTFGGGTKLELK
0.0141

Specify reported EC50 for the binder shown: 11G2huVH2 + huVL2(P07267) (antibody, V domains shown, Humanized 11G2) VH: QVQLVQSGAEVKKPGASVKVSCKASGYTFITYDINWVRQAPGQGLEWIGWIYPRDGNTQFNENFKGRVTMTTDTSTSTAYMELRSLRSDDTAVYYCARGDRDYGYFDVWGQGTTVTVSS VL: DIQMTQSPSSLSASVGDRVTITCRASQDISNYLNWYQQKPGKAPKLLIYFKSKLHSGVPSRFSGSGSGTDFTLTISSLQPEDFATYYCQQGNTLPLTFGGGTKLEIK
0.0421

Next:
Specify reported EC50 for the binder shown: 11G2huVH5 + huVL1(P07266) (antibody, V domains shown, Humanized 11G2) VH: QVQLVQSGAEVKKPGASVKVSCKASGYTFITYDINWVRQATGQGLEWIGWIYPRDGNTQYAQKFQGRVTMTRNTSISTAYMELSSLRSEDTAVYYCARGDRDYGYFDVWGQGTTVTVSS VL: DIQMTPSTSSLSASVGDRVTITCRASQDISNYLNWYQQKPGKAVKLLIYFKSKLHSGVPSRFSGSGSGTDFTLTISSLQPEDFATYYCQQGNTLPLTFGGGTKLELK
0.014

Specify reported EC50 for the binder shown: 11G2huVH3 + huVL3(P07273) (antibody, V domains shown, Humanized 11G2) VH: QVQLVQSGAEVKKPGASVKVSCKASGYTFITYDINWVRQATGQGLEWIGWIYPRDGNTQFNENFQGRVTMTRNTSISTAYMELSSLRSEDTAVYYCARGDRDYGYFDVWGQGTTVTVSS VL: DIQMTQSPSSLSASVGDRVTITCQASQDISNYLNWYQQKPGKAPKLLIYFKSKLETGVPSRFSGSGSGTDFTFTISSLQPEDIATYYCQQGNTLPLTFGGGTKLEIK
0.0778
